target: MAX:MAX (p21) (human, UniProt P61244-2 1-151); test: protein-binding microarray (anti-MAX antibody); PBM: 15 mM Tris-HCl pH 7.5, 100 mM KCl, 0.075% NP40, 7.5 mM beta-mercaptoethanol, 375 ng/ul BSA, 8 ng/ul poly(dA-dT):(dA-dT), 550 ng complex, 60 min, room tempe; high values mean tight binding; settings: protein: recombinant; tags: 6xHis; chain copies: 2; label: 3' end of printed strand (linker) attached to glass slide; dsDNA, one strand shown
Sequence (P61244 other isoform, or with tags, fused parts or gaps): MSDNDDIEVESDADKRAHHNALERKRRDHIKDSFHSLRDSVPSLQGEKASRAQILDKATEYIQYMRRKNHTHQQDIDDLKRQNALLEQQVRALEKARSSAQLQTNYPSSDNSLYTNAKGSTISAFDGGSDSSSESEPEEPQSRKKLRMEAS
Over roughly 4,500 sequences, “log2 normalized fluorescence” has its median near -0.34; the highest 2% begin near 3.3. This is one part of a sample in which the highest values are shown more often than they occur.
Exercise: state measured binding signal for each of the sequences provided.

Input line: Given CCGGCTAACACGTGGTTTTAATAGCTAAGATTACTATATCGACG , state its recorded binding signal.
Output line: 3.27 log2 normalized fluorescence

Input line: Given CCGGCTGACCCAAGGTATTAATAGCTAAGATTACTATATCGACG , state its recorded binding signal.
Output line: -0.0673 log2 normalized fluorescence

Input line: Given CCGGCTGAGCACTGGTATTAATAGCTAAGATTACTATATCGACG , state its recorded binding signal.
Output line: -0.181 log2 normalized fluorescence

Input line: Given CCGGCTGAGCAGGGGTATTAATAGCTAAGATTACTATATCGACG , state its recorded binding signal.
Output line: 0.451 log2 normalized fluorescence

Input line: Given CCGGCTGAGGAGGCGTATTAATAGCTAAGATTACTATATCGACG , state its recorded binding signal.
Output line: -0.734 log2 normalized fluorescence

Input line: Given CCGGCTCACACGTTTTATTAATAGCTAAGATTACTATATCGACG , state its recorded binding signal.
Output line: 3.25 log2 normalized fluorescence

Input line: Given CCGGCTGATCAGAGGTATTAATAGCTAAGATTACTATATCGACG , state its recorded binding signal.
Output line: -0.421 log2 normalized fluorescence

###

molecular target: MAX:MAX (p21) (human, UniProt P61244-2 1-151); assay: protein-binding microarray (anti-MAX antibody); PBM: 15 mM Tris-HCl pH 7.5, 100 mM KCl, 0.075% NP40, 7.5 mM beta-mercaptoethanol, 375 ng/ul BSA, 8 ng/ul poly(dA-dT):(dA-dT), 550 ng complex, 60 min, room tempe; high values mean tight binding; settings: protein: recombinant; tags: 6xHis; chain copies: 2; label: 3' end of printed strand (linker) attached to glass slide; dsDNA, one strand shown
In all, about 4,500 sequences were measured (“log2 normalized fluorescence”: median about -0.34, highest 2% from about 3.3 on). Shown is part of a subset that was picked to be rich in the highest values.
measured.metric: binding signal

Input line: Given CCGGCTGGCACGAGGTTTTAATAGCTAAGATTACTATATCGACG , state its recorded binding signal.
Output line: 3.28 log2 normalized fluorescence

Input line: Given CCGGCTGACACGTGCTTTTAATAGCTAAGATTACTATATCGACG , state its recorded binding signal.
Output line: 3.34 log2 normalized fluorescence

Input line: Given CCGGCTGGTACGTGGTCTTAATAGCTAAGATTACTATATCGACG , state its recorded binding signal.
Output line: 1.03 log2 normalized fluorescence

Input line: Given CCGGCTGACACGTGTACTTAATAGCTAAGATTACTATATCGACG , state its recorded binding signal.
Output line: 3.15 log2 normalized fluorescence

Input line: Given CCGGCTGACACGTGTTCTTAATAGCTAAGATTACTATATCGACG , state its recorded binding signal.
Output line: 3.35 log2 normalized fluorescence

Input line: Given CCGGCTGACACGTGGCTTTAATAGCTAAGATTACTATATCGACG , state its recorded binding signal.
Output line: 3.04 log2 normalized fluorescence

Input line: Given CCGGCTGTCACGTGATATTAATAGCTAAGATTACTATATCGACG , state its recorded binding signal.
Output line: 3.2 log2 normalized fluorescence

Input line: Given CCGGCTGACACGTGCCTTTAATAGCTAAGATTACTATATCGACG , state its recorded binding signal.
Output line: 3.18 log2 normalized fluorescence

Input line: Given CCGGCTGAGACGCCGTATTAATAGCTAAGATTACTATATCGACG , state its recorded binding signal.
Output line: -0.749 log2 normalized fluorescence

Input line: Given CCGGCTGAAGGCACGTATTAATAGCTAAGATTACTATATCGACG , state its recorded binding signal.
Output line: 0.169 log2 normalized fluorescence

Input line: Given CCGGCAGACACGTGGTATTAATAGCTAAGATTACTATATCGACG , state its recorded binding signal.
Output line: 3.08 log2 normalized fluorescence

Input line: Given CCGGCAGACACTTAGTATTAATAGCTAAGATTACTATATCGACG , state its recorded binding signal.
Output line: 0.466 log2 normalized fluorescence

Input line: Given CCGGCTGAGGCCATGTATTAATAGCTAAGATTACTATATCGACG , state its recorded binding signal.
Output line: 0.0723 log2 normalized fluorescence

Input line: Given CCGGCTCTCACGTGGTATTAATAGCTAAGATTACTATATCGACG , state its recorded binding signal.
Output line: 3.5 log2 normalized fluorescence

Input line: Given CCGGCAAACACGTTGTATTAATAGCTAAGATTACTATATCGACG , state its recorded binding signal.
Output line: 3.31 log2 normalized fluorescence

Input line: Given CCGGCTGACACAGGGTATTAATAGCTAAGATTACTATATCGACG , state its recorded binding signal.
Output line: 0.747 log2 normalized fluorescence

Input line: Given CCGGCTGACACGTAGCTTTAATAGCTAAGATTACTATATCGACG , state its recorded binding signal.
Output line: 1.51 log2 normalized fluorescence

Input line: Given CCGGCTGAACGCAAGTATTAATAGCTAAGATTACTATATCGACG , state its recorded binding signal.
Output line: 0.234 log2 normalized fluorescence

Input line: Given CCGGCAGACACTTTGTATTAATAGCTAAGATTACTATATCGACG , state its recorded binding signal.
Output line: 0.324 log2 normalized fluorescence

Input line: Given CCGGCTGACACGTGTGTTTAATAGCTAAGATTACTATATCGACG , state its recorded binding signal.
Output line: 3.37 log2 normalized fluorescence

Input line: Given CCGGCTGACCGCCGGTATTAATAGCTAAGATTACTATATCGACG , state its recorded binding signal.
Output line: -0.241 log2 normalized fluorescence

Input line: Given CCGGCTAGCACGTGGCATTAATAGCTAAGATTACTATATCGACG , state its recorded binding signal.
Output line: 3.24 log2 normalized fluorescence

Input line: Given CCGGCTGATATTGCGTATTAATAGCTAAGATTACTATATCGACG , state its recorded binding signal.
Output line: -0.611 log2 normalized fluorescence

Input line: Given CCGGCACTCACGTGGTATTAATAGCTAAGATTACTATATCGACG , state its recorded binding signal.
Output line: 3.13 log2 normalized fluorescence

Input line: Given CCGGCTGACACGTGTTTTTAATAGCTAAGATTACTATATCGACG , state its recorded binding signal.
Output line: 3.34 log2 normalized fluorescence

Input line: Given CCGGCTGAAAGATGGTATTAATAGCTAAGATTACTATATCGACG , state its recorded binding signal.
Output line: -0.31 log2 normalized fluorescence

Input line: Given CCGGCTCTTACGTGGTATTAATAGCTAAGATTACTATATCGACG , state its recorded binding signal.
Output line: 0.802 log2 normalized fluorescence

Input line: Given CCGGCCCTCACGTGGTATTAATAGCTAAGATTACTATATCGACG , state its recorded binding signal.
Output line: 3.26 log2 normalized fluorescence

Input line: Given CCGGCTGACACGTGCTCTTAATAGCTAAGATTACTATATCGACG , state its recorded binding signal.
Output line: 3.24 log2 normalized fluorescence

Input line: Given CCGGCGTACACGTGGTCTTAATAGCTAAGATTACTATATCGACG , state its recorded binding signal.
Output line: 3.35 log2 normalized fluorescence

Input line: Given CCGGCTCACACGAGGTTTTAATAGCTAAGATTACTATATCGACG , state its recorded binding signal.
Output line: 3.32 log2 normalized fluorescence

Input line: Given CCGGCTGAACCCTGGTATTAATAGCTAAGATTACTATATCGACG , state its recorded binding signal.
Output line: -0.595 log2 normalized fluorescence

Input line: Given CCGGCCAACACGTTGTATTAATAGCTAAGATTACTATATCGACG , state its recorded binding signal.
Output line: 3.07 log2 normalized fluorescence

Input line: Given CCGGCTGAGAGCGTGTATTAATAGCTAAGATTACTATATCGACG , state its recorded binding signal.
Output line: 2.11 log2 normalized fluorescence

Input line: Given CCGGCTCACACGTGATATTAATAGCTAAGATTACTATATCGACG , state its recorded binding signal.
Output line: 3.31 log2 normalized fluorescence

Input line: Given CCGGCTGAGGGTGCGTATTAATAGCTAAGATTACTATATCGACG , state its recorded binding signal.
Output line: 0.326 log2 normalized fluorescence

Input line: Given CCGGCTGACACGTTGTTTTAATAGCTAAGATTACTATATCGACG , state its recorded binding signal.
Output line: 3.22 log2 normalized fluorescence

Input line: Given CCGGCTGACACGTGTGATTAATAGCTAAGATTACTATATCGACG , state its recorded binding signal.
Output line: 3.24 log2 normalized fluorescence
